These entries and their values trace back to patent US8906844B2.

- TARGET DESC: T1, soluble human FcRn (shFcRn) (human, UniProt P55899 24-297; P61769 21-119, biotinylated with Sulfo-NHS-LC-Biotin in the ELISA; amine-coupled to a CM5 chip in SPR)
- T1 construct: also called biotinylated shFcRn
- T1 sequence (P55899 24-297 limits assumed, chain 1 of 2): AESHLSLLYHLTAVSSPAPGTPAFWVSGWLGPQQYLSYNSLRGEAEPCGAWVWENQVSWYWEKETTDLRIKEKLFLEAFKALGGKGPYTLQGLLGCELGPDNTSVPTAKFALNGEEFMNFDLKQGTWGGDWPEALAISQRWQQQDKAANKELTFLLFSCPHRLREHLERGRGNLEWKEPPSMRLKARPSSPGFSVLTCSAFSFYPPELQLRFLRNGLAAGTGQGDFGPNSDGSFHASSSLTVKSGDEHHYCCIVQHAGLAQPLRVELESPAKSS
- T1 sequence (P61769 21-119 limits assumed, chain 2 of 2): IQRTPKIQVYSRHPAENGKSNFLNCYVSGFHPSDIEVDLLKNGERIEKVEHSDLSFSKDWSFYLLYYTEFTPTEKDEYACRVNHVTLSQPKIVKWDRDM
- ASSAY PROCEDURE: SPR, pH 6; Tyr replaced by NMeTyr (N-methyl scan)
pKd: −log10 of the molar value.

| BINDER | pKd |
| --- | --- |
| QRFXTGHFGGLXPCNGP (Pen4; NMeTyr12; disulfide; C-terminal amide) [Peptide No. 114] | 4.04 |
